FYI, the data here is from patent US20240269139A1.

Biological target: protein kinases (human kinome) (Homo sapiens, UniProt Q00534)
Sequence (Q00534 whole entry): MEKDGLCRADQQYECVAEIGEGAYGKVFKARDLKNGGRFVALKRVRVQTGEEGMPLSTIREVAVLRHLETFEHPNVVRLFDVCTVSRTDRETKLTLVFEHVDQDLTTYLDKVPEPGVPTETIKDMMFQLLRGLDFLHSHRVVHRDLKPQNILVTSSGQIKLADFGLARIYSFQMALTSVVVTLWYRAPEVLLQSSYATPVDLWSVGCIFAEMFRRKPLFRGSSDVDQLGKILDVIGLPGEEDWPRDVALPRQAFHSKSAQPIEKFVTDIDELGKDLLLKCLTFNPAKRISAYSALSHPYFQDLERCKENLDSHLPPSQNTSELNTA
Type: cell-based
Conditions: Experiment wp137; down
Excerpt: Although development of targeted protein degraders requires a POI binder, among already-liganded proteins such as kinases, it was hypothesized that different targets would have a different propensity for current approaches to degrader-mediated destruction, which was termed ‘degradability’. […]
observable: logFC of CDK6 (Q00534)

CC(C)S(=O)(=O)c1ccccc1Nc1nc(Nc2ccc(N3CCN(CCOCCOCCNC(=O)CNc4cccc5c4C(=O)N(C4CCC(=O)NC4=O)C5=O)CC3)cc2)ncc1Cl (stereo not shown) = −0.8724
CC(C)(C)c1nc(-c2cccc(NS(=O)(=O)c3c(F)cccc3F)c2F)c(-c2ccnc(NCCOCCNC(=O)CCOCCOCCNc3cccc4c3C(=O)N(C3CCC(=O)NC3=O)C4=O)n2)s1 (stereo not shown) = −1.083
CC(C)S(=O)(=O)c1ccccc1Nc1nc(Nc2ccc(N3CCN(CCOCCOCCC(=O)NCCNc4cccc5c4CN(C4CCC(=O)NC4=O)C5=O)CC3)cc2)ncc1Cl (stereo not shown) = −0.5967
CC(=O)c1c(C)c2cnc(Nc3ccc(N4CCN(CCCCNC(=O)COc5cccc6c5C(=O)N(C5CCC(=O)NC5=O)C6=O)CC4)cn3)nc2n(C2CCCC2)c1=O (stereo not shown) = −2.866
